Ref: ChEMBL document CHEMBL3988442

Target: Aspartate--tRNA(Asp/Asn) ligase (Mycobacterium tuberculosis (strain ATCC 25618 / H37Rv)) (UniProt P9WFW3); further: in the data most compounds retested in dose-response had high values
Sequence (whole entry): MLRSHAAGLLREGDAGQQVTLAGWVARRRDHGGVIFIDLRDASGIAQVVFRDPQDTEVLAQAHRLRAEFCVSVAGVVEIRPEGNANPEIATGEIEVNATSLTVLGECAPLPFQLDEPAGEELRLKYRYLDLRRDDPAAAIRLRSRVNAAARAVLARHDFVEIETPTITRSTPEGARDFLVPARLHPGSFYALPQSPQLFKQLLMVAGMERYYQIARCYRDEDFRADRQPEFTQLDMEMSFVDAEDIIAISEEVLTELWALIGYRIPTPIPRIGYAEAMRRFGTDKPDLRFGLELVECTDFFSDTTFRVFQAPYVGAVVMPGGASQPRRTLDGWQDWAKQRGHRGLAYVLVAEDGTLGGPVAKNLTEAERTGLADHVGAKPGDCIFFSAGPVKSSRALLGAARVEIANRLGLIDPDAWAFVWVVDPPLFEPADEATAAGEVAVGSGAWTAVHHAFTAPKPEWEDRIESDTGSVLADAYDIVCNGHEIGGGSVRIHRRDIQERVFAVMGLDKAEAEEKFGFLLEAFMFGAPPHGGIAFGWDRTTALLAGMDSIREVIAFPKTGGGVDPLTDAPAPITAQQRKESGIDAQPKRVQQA
Assay: Assay for Asp RNA synthetase-1 from Mycobacterium tuberculosis
Type: functional
Set-up: scale not given: direction of the effect not stated beside the values
Details: 30 µM
MEASUREMENT_LABEL: Percent Effect (%)
Please reply with the bare figure in % and do not write the unit itself.

• COCCN(C)C(=O)Nc1ccc2c(ccn2CCOC)c1 = -1.14
• COc1cccc(COCC(=O)N2CCCC(n3ccnc3)C2)c1 (stereo not drawn) = -3.41
• NC(=O)C1CCCN1Cc1cccc(NC(=O)c2ccsc2)c1 (stereo not drawn) = 2.98
• Cc1cc(C)c2cc(CNCc3ccccc3)c3nn(C)c(=O)n3c2c1 = -2.43
• Cc1nc(COC[C@]23COC[C@H]2CN(Cc2ccoc2)C3)cs1 = -0.55

(Q) // returns reported Percent Effect for input CNC(=O)NC(=O)CN1CCC(c2c[nH]c3ccc(OC)cc23)CC1
(A) -2.54

(Q) Give its Percent Effect value. Item: Cc1cc(C2CCCN(C(=O)c3c(C)nn4cccnc34)C2)n[nH]1 (stereo not drawn)
(A) -6.19

(Q) So what does the record say about Percent Effect for Cc1cc(O)nc(C2CCCN(Cc3ccncc3)C2)n1 (stereo not drawn) ?
(A) 1.35

(Q) Record request: Percent Effect value, item CN(c1ccc(C(C)(C)C)cc1)S(=O)(=O)c1cc(C(=O)O)cs1
(A) 1.85

(Q) # input compound: O=C(NCCOc1ccc(F)c(F)c1)NCc1ccncc1 ; wanted: its Percent Effect
(A) -0.948

(Q) Give its Percent Effect value. Item: Cc1nn(C)c(C)c1C1CCCN1Cc1cccc(C(N)=O)c1 (stereo not drawn)
(A) -1.14

(Q) Returns the measured Percent Effect for the input compound. Input: O=C(C1CCOCC1)N1CCC2(CC1)CC(Oc1ccccc1)CO2 (stereo not drawn)
(A) -1.89

(Q) Query: Percent Effect; subject: O=C(CCN1CCCC1C1CCCCC1)N1CCc2sccc2C1 (stereo not drawn)
(A) 2.02

(Q) Please give the measured Percent Effect for this compound: Cc1nc(CCC(=O)NC2CCC2)cc(C2CCNCC2)n1
(A) 1.96

(Q) Percent Effect for Cc1ccc(NC2CCN(C(=O)c3cccc(F)c3F)CC2)nn1 ?
(A) -4.5

(Q) If you can, please state the reported Percent Effect value of COc1ncccc1NC(=O)N1CCC(CN2CCOCC2)CC1 .
(A) -3.02

(Q) May I ask what Percent Effect has been recorded for O=C(COCc1nc(-c2ccncc2)no1)NC1CCCCC1 ?
(A) 2.71

(Q) What does the data say about its Percent Effect? Entry: CC1N(CC2CC2)C(=O)COC12CCN(Cc1nccs1)CC2 (stereo not drawn)
(A) -0.821

(Q) Would you mind telling me what Percent Effect value was observed for Nc1nc(C2CCN(C(=O)c3cscn3)CC2)cs1 ?
(A) 2.54

(Q) Suppose we examine the compound Cc1ccc2c(c1)c(CNC(=O)C1CCN(C(C)C)CC1)nn2C ; what Percent Effect value has been reported?
(A) -0.814

(Q) Suppose we examine the compound CC(C)Oc1ncnc2c1CCN(Cc1cccs1)CC2 ; what Percent Effect value has been reported?
(A) 1.14

(Q) Quick one: Percent Effect of Cn1cc(CN2C[C@@H]3COC[C@]3(C(=O)NCc3ccccn3)C2)cn1 ?
(A) 3.06

====

Target: Sialic acid-binding Ig-like lectin 9 (Homo sapiens) (UniProt Q9Y336)
Sequence (Q9Y336 whole entry): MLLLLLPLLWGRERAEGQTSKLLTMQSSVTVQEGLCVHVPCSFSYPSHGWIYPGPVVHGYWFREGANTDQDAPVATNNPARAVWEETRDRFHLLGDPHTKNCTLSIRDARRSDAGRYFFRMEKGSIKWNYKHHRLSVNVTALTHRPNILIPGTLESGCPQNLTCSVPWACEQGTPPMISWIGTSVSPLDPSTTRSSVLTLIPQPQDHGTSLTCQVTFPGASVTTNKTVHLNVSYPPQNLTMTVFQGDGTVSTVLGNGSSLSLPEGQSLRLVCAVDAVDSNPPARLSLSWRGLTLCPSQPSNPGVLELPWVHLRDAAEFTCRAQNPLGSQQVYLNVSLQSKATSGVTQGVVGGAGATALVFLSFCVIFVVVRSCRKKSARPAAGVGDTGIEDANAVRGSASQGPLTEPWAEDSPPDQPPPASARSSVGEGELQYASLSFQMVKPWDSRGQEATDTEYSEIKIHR
Experiment: Hs-Siglec9 ALPHAscreen SOP 20170721
Set-up: scale not given: direction of the effect not stated beside the values
Conditions: 10 µM
MEASUREMENT_LABEL: Percent Effect (%)
The reply should be a number in %, with the unit left off.

Known Percent Effect results, listed for orientation:
- c1cncc(COC[C@H]2CC[C@H]3[C@H](CCN3Cc3cccs3)O2)c1: 2.88
- Cn1ccnc1CN1CCC2(CC(=O)N(c3cncnc3)C2)C1 (stereo unspecified): 1.79
- c1cncc(CO[C@H]2CO[C@@]3(CCN(Cc4ccoc4)C3)C2)c1: 8.75
- Cc1noc(C)c1CN1CC[C@H]2C[C@@H](c3nccs3)O[C@@H]2C1: 1.06
- O=C1[C@H]2CN(Cc3ccoc3)C[C@H]2CN1Cc1ccncc1: 28.9

(Q) Form: Entry = Cc1noc(C)c1CN1CCO[C@H]2CNC[C@H]21 | System = Sialic acid-binding Ig-like lectin 9 (Homo sapiens) (UniProt Q9Y336) | Percent Effect = ____
(A) -4.93

(Q) Lab note: need Percent Effect for Cc1noc(C)c1CN1CCCC2(CCN(C(=O)NC3CC3)C2)C1 (stereo unspecified) on Sialic acid-binding Ig-like lectin 9 (Homo sapiens) (UniProt Q9Y336), anyone have it?
(A) -1.1

====

Molecular target: Aspartate--tRNA(Asp/Asn) ligase (Mycobacterium tuberculosis (strain ATCC 25618 / H37Rv)); further: in the data most compounds retested in dose-response had high values
Test: Assay for Asp RNA synthetase-1 from Mycobacterium tuberculosis
Type: functional
Design: scale not given: direction of the effect not stated beside the values
Settings: 30 µM
Entries and their Percent Effect
Only the number, expressed in %, is required.

Known results for compounds:
* CC(C)c1ccc(OCCC(=O)N2CCC(CC(N)=O)CC2)cc1 | -0.478
* Cc1cc(CN(C)C(=O)NCc2cccc(N3CCCC3=O)c2)no1 | -2.4
* CC(=O)N1CCN(C(=O)c2cc(-n3cnnn3)ccc2Cl)CC1 | -1.41
* CSc1ccc(C(CN)N2CCc3sccc3C2)cc1 (stereo unspecified) | -1.53
* CN(C)c1ccc(CCCNC(=O)Nc2ccc(C#N)cc2)cc1 | -1.77

(Q) Any idea what its Percent Effect is? The compound is Fc1ccc(CN2CC[C@H]3O[C@@H](COCC4CCOCC4)CC[C@H]32)cc1
(A) 0.838

====

Target: Shiga toxin 2 (Escherichia coli O157:H7) (UniProt P09385+P09386)
Assay: E. coli 0.157:H7 Shiga Toxin SOP - stx2 screening assay
Format: functional
Set-up: scale not given: direction of the effect not stated beside the values
Details: 30 µM
Reported Percent Effect values for the following compounds.
Quick note: give the figure in %, leave out the unit.

Known Percent Effect results, listed for orientation:
• O=C(CC1CN(Cc2ccccc2)CCO1)NC1CCCC1 (stereo not drawn) = 1.42
• CN(Cc1cn2c(n1)CN(CC1CC1)CC2)Cc1ccco1 = -1.46
• Cc1nn(C)c(N(C)C)c1CNCCCN(C)S(C)(=O)=O = -43.8
• Cc1cc(CN(C)C(=O)c2ccnc(N(C)C)c2)no1 = -18.4
• CCN1CCN(C(=O)CCc2c(C)noc2Cl)CC1 = 28.8
• COc1ccccc1CC(=O)NS(=O)(=O)c1ccc(C(N)=O)cc1 = 7.74

(Q) Please look up its Percent Effect: COc1ccc2c(ccn2CCN)c1
(A) -17.9

(Q) Please report the recorded Percent Effect for CN1C(=O)C[C@@H]2[C@@H]1CCN2C(=O)c1ccc[nH]1 .
(A) -6.89

(Q) What does the data say about its Percent Effect? Entry: Cc1csc(N2CCN(CC(=O)Nc3c(C)n[nH]c3C)CC2C)n1 (stereo not drawn)
(A) 17.4

====

# Percent Effect per entry
Biological target: Shiga toxin 2 (Escherichia coli O157:H7) (UniProt P09385+P09386)
Experiment: E. coli 0.157:H7 Shiga Toxin SOP - stx2 screening assay
Type: functional
Design: scale not given: direction of the effect not stated beside the values
Conditions: 30 µM
Your answer should be a plain number; it is taken to be in %.

(Q) I'd like to know its Percent Effect. The molecule in question is CN(C)C(=O)CNC(=O)Nc1cccc(Cl)c1SC(F)F
(A) -5.26

(Q) Form field: reported Percent Effect of CC(C)C(=O)NCC(=O)N(C)C1CCCN(CCc2ccccc2)C1 (configuration not stated)
(A) -14.4

(Q) Which measured Percent Effect value corresponds to Cc1nc(CN(C)C2CCN(Cc3ccc4ccccc4n3)C2)no1 (configuration not stated) ?
(A) -68.9

(Q) Fill in the blank: the reported Percent Effect of Cc1cc(C)n(-c2cncc(NCCNC(=O)C(C)C)n2)n1 is ____.
(A) 2.01

(Q) Entry CCCNC(=O)CNC(=O)CCc1ccccc1Br has what Percent Effect?
(A) -0.75
